Origin of the recorded values: ChEMBL document CHEMBL1201862

# Tested on: K562
# Test method notes: NCI tumour cell line growth inhibition, 48 h
Active and inactive are the calls of the source. Rule as the data show it: active = GI50 up to about 1.1 µM and inactive = higher.
Known GI50 of a selection of compounds

| Compound structure | Target or test system | GI50 |
| --- | --- | --- |
| O=C1OCC/C1=N/O | K562 | > 100 µM (inactive) |
| CCc1cccc(C(C)C)c1NC(=O)C(=O)Nn1c(S)nc2ccccc2c1=O | K562 | > 100 µM (inactive) |
| C/C(=N\NC1=NCCN1)c1cn(C2=NCCN2)nc1C | K562 | 59.6 µM (inactive) |
| O=C(NNC(=O)c1cc2ccccc2[nH]1)c1cc2ccccc2[nH]1 | K562 | 80 µM (inactive) |

---

# System: A549
# Test method notes: NCI tumour cell line growth inhibition, 48 h
Calls of active or inactive are those of the source. Cut-off read from the data, not from the text of the source: active = GI50 up to about 1.1 µM and inactive = higher.
Known GI50 of a selection of molecules
Experimental endpoint: GI50

| Molecule | Result |
| --- | --- |
| CC(=O)OCC1OC(n2c3c(cc(C#N)c2=S)CCCCC3)C(OC(C)=O)C(OC(C)=O)C1OC(C)=O (configuration not stated) | > 100 µM (inactive) |
| O=C(O)c1cc(/N=N/c2ccc([As](=O)(O)O)cc2)ccc1O | > 100 µM (inactive) |
| O=[N+]([O-])c1c(O)c2nonc2c2nn(-c3ccccc3)nc12 | > 100 µM (inactive) |
| COc1cc(Oc2nc3ccc(C(F)(F)F)cc3nc2-c2ccccc2)cc(OC)c1OC | 17.1 µM (inactive) |
| CC#CC#C/C(=C/C=CC(=O)OC)SC | > 100 µM (inactive) |
| CC1CC(=O)Nc2ccccc2N1C(=O)C1CC1 (configuration not stated) | > 100 µM (inactive) |
| Brc1ccc2c(c1)[C@H]1CCc3c([nH]c4ccccc34)[C@H]1N2 | 14.8 µM (inactive) |

---

# Tested on: SK-OV-3
# Test method notes: NCI tumour cell line growth inhibition, 48 h
Activity calls are given as the source filed them. No stated cut-off is given here; in the data, active = GI50 up to about 1.1 µM and inactive = higher.
Classes used: active, inactive

| Compound | Label class |
| --- | --- |
| Cc1nc2cccc(F)c2c(=O)n1-c1nnc(C2CC2)s1 | inactive |
| CON(C)C(=O)C(C)N(Cc1ccccc1)Cc1ccccc1 (stereo unspecified) | inactive |
| CN1C(=O)C2(Cc3cn(C45CC67SSC(CO)(C(=O)N6C4Nc4ccccc45)N(C)C7=O)c4ccccc34)SSC1(CO)C(=O)N2C (stereo unspecified) | active |
| Cn1c(=O)c2nc(NCCO)cnc2n(C)c1=O | inactive |
| CCCCCC(/C=N/N)C(O)(C(F)(F)F)C(F)(F)F (stereo unspecified) | inactive |
| Cc1ccccc1NC(=O)C(=O)CC(=O)C1CCOC1=O (stereo unspecified) | inactive |
| Cc1nc(Cl)c2sc(=S)n(-c3ccc(F)cc3)c2n1 | inactive |
| O=C1c2ccccc2C(=O)N1CC#CCO | inactive |
| CCOC(=O)NC(=O)c1cn(CCN2CCN(C(=O)CNC(=O)CNC(=O)Cn3cc(C(=O)NC(=O)OCC)c(=O)[nH]c3=O)CC2)c(=O)[nH]c1=O | inactive |
| [O-][S+]1c2ccccc2N=C(c2ccc3ccccc3c2)CC1C1=CC=CCC1 (stereo unspecified) | inactive |
| O=C(/C=C/c1cccc2ccccc12)c1ccccc1 | inactive |
| O=C1N[C@@H](c2c[nH]c3cc(Br)ccc23)C(=O)N[C@H]1c1c[nH]c2cc(Br)ccc12 | inactive |
| COc1cc(/C=C2\N=C(c3ccccc3)N(c3nc4ccc(Sc5ccccc5)cc4[nH]3)C2=O)ccc1O | inactive |
| CN(C)CC1COC2Cc3ccccc3C1O2 (stereo unspecified) | inactive |
| CC(=O)Nc1ccccc1S(=O)(=O)c1ccccc1 | inactive |
| N#CC1(Nc2ccc(-c3ccc(NC4(C#N)CCCC4)cc3)cc2)CCCC1 | inactive |
| CN1C(=O)CC2(C)c3cc(O)cc(Br)c3N(C)C12 (stereo unspecified) | inactive |
| Cc1cc(C)c(-c2noc(-c3ccc(Cl)cc3)c2C2=NCCCN2)c(C)c1 | inactive |
| CCN(CC)C(=S)SC1CCOP(=O)(N(CCCl)CCCl)N1C (stereo unspecified) | inactive |
| CC(O)c1cc2c(s1)C(=O)c1ccsc1C2=O (stereo unspecified) | inactive |
| C=C1C(=O)C23C(CC(OC(C)=O)C1[C@@H]2OC(C)=O)C1(C)C(OC(C)=O)CCC(C)(C)C1C[C@@H]3OC(C)=O (stereo partly specified) | inactive |
| COC1/C=C\C=C(/C)C(=O)Nc2cc3nc4ccc(Br)cc4oc-3c(c2=O)CC(C)CC(OC)C(O)C(C)/C=C(\C)C1OC(N)=O (stereo unspecified) | active |
| CCOC(=O)c1nc2ccccc2nc1Oc1ccc(C(=O)OC)cc1 | inactive |
| COc1cc(C[P+](c2ccccc2)(c2ccccc2)c2ccccc2)cc(OC)c1OC | inactive |
| CC(O[Si](c1ccccc1)(c1ccccc1)C(C)(C)C)[C@H](NC(=O)OC(C)(C)C)C(=O)O (stereo partly specified) | inactive |
| CCOC(=O)C(=O)Nc1ccc(Cl)cc1C | inactive |
| Nc1ccccc1SCc1csc(-c2ccc(Cl)cc2)n1 | inactive |
| N=C(N)NS(=O)(=O)c1ccc(NC(=O)c2cccc3c(Nc4ccc(S(=O)(=O)N=C(N)N)cc4)c4ccccc4nc23)cc1 | inactive |
| C#Cc1cccc(N2C(=O)CCC2=O)c1 | inactive |
| COc1ccc(Nc2nc3ccc(C(F)(F)F)cc3nc2-c2ccccc2)cc1OC | inactive |
| O=C(O)c1ccccc1/C=N\N=C1NCCCCN1 | inactive |
| C/C(=C\C(C[C@](C)(O)C(O)CCC#C[Si](C)(C)C)S(=O)(=O)c1ccccc1)CC/C=C/CO[Si](C)(C)C(C)(C)C (stereo partly specified) | inactive |
| C=C1C(=O)C2=CC1CCC(=O)C1(C)CCC(OC(C)=O)C(C)(C)C1CC2O (stereo unspecified) | inactive |
| Nc1ccc(Nc2c3ccccc3nc3ccccc23)cc1 | inactive |
| C/C(=N\Nc1nc2cc(Cl)ccc2s1)c1ccccn1 | active |
| COc1ccc(NC(=S)N/N=C\c2ccc(NC(C)=O)cc2)cc1 | inactive |
